test system: 435261-313-R-J1-PDC complex spheroid viability; test: Anticancer human tumor 435261-313-R-J1-PDC patient-derived colon adenocarcinoma cell line growth inhibition [GQUAD]; conditions: second compound 0.0316 µM; first compound 0.316 µM; active compounds read low;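 note: spheroids exposed to the agents for seven days before readout; percent of vehicle control viability with DMSO wells as 100%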
measured-endpoint: viability, T/C

O=C(c1cc(Cc2n[nH]c(=O)c3ccccc23)ccc1F)N1CCN(C(=O)C2CC2)CC1 + CN(C)c1ccc(Nc2c3ccc(NC(=O)CCN4CCCC4)cc3nc3cc(NC(=O)CCN4CCCC4)ccc23)cc1; 84.8%
COc1cc(C2c3cc4c(cc3C(OC3OC5COC(C)OC5C(O)C3O)C3COC(=O)C23)OCO4)cc(OC)c1O (stereo not given) + CN(C)c1ccc(Nc2c3ccc(NC(=O)CCN4CCCC4)cc3nc3cc(NC(=O)CCN4CCCC4)ccc23)cc1; 77.8%

Please state viability, T/C for every compound in the list that follows.
1. COc1ncnc(C2CC2)c1-c1ncc2cnn(Cc3ccc(-c4nc(C(F)(F)F)cn4C(C)C)cc3)c2n1 + CN(C)c1ccc(Nc2c3ccc(NC(=O)CCN4CCCC4)cc3nc3cc(NC(=O)CCN4CCCC4)ccc23)cc1
2. Nc1ccn(C2OC(CO)C(O)C2(F)F)c(=O)n1 (stereo not given) + Cc1cnc(CNC(=O)c2c(=O)c3ccc(N4CCCN(C)CC4)nc3n3c2sc2ccccc23)cn1
3. CC[C@@]1(O)C(=O)OCc2c1cc1n(c2=O)Cc2cc3c(CN(C)C)c(O)ccc3nc2-1 + CN(C)c1ccc(Nc2c3ccc(NC(=O)CCN4CCCC4)cc3nc3cc(NC(=O)CCN4CCCC4)ccc23)cc1

["90%", "64.2%", "88.7%"]
